// provenance: patent US20250382298A1

Assay: Pharmacokinetic test in mice
Type: in vivo
Conditions: mouse, plasma, 5 mg/kg; BALB/c mice, PO @5mpk
experimental_endpoint: Cmax (µM)

# structure_as_smiles, experimental_endpoint, observed_measurement
rows = [
    ("O=C(Nc1cc2cccnc2c(N2CCC(F)(F)CC2)n1)c1ccc(NS(=O)(=O)CCO)cc1N1CCC2(CC1)CC2", "Cmax", 4.17),
]

a. Cc1cc(NC(=O)c2ccc(NS(=O)(=O)CCO)cc2N2CC3CCC(C3)C2)nc(N2CCC(F)(F)CC2)n1
b. O=C(Nc1cn2c(F)cnc2c(N2CCC(F)(F)CC2)n1)c1ccc(NS(=O)(=O)CCO)cc1N1CCC2(CC1)CC2
c. O=C(Nc1cc2ccccc2c(N2CCC(F)(F)CC2)n1)c1ccc(NS(=O)(=O)CCO)cc1N1CCC2(CC1)CC2
QUERY: Output the entries ranked by Cmax from maximum down to minimum. Your task in answering is to list the labels in the requested order.
RESULT: b, a, c
